B1: ZNF449 (parent)
chain: YRHQRLHTGERPYECTVCKKRFTR

Variants of: B1
Assay: protein stability index of a GFP-peptide fusion (GPS, HEK-293T) (PSI 1-6); higher = more stable;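 further: lentivirally expressed fusions sorted by FACS into six bins by GFP to DsRed ratio, PSI derived from sequencing read proportions per bin multiplied by bin number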
Conditions: c terminus: a fixed tail appended
property: protein stability index
Give bare numbers.

These solved cases illustrate the format of a correct answer.
**Q:** Tell me the measured protein stability index of E14R , please.
**A:** 2.6

**Q:** Tell me the measured protein stability index of Y1I , please.
**A:** 2.55

**Q:** Tell me the measured protein stability index of H7Q , please.
**A:** 2.53

Go through the list and state protein stability index for each entry.
1. Q4C
2. G9T

**A:**
1: 2.99; 2: 2.23

Go through the list and state protein stability index for each entry.
1. C15Q
2. R2V
3. H7W

**A:**
1: 3.91; 2: 3.09; 3: 3.01
